# maps each entry to its pKd
Molecular target: T1, BoNT/B1 (Clostridium botulinum, UniProt P10844 2-1291)
T1 sequence: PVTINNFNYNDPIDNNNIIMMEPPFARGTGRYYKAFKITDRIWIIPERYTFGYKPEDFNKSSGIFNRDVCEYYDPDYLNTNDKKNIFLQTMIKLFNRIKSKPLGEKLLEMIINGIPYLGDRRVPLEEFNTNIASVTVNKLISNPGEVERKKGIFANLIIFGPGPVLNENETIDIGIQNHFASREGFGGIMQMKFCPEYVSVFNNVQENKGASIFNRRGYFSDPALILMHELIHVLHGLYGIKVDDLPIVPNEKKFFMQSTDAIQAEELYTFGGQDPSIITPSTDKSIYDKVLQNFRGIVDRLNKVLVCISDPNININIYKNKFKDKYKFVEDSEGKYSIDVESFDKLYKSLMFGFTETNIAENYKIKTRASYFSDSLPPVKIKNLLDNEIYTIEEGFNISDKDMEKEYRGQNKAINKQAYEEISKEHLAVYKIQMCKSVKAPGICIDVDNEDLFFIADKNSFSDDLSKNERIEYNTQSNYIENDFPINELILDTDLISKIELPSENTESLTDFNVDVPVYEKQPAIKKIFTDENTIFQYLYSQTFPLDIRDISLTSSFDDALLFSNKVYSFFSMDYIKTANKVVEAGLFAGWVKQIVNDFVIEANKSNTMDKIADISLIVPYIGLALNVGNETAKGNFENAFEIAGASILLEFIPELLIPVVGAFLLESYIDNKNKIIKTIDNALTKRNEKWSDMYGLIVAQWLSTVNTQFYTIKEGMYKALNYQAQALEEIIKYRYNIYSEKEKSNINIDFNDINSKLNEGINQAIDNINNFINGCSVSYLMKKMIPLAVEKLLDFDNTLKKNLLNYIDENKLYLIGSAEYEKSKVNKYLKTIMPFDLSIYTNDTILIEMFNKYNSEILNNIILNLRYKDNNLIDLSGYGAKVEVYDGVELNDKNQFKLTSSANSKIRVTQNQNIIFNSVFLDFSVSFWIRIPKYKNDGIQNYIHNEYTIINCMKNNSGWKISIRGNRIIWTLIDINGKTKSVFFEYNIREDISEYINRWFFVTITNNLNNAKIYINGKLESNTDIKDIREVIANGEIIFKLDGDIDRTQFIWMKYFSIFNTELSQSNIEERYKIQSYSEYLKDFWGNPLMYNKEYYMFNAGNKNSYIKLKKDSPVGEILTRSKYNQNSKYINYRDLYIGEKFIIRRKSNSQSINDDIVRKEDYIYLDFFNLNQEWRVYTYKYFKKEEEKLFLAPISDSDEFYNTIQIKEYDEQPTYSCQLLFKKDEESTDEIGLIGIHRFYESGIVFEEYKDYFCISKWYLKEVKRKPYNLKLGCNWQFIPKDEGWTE
Test: yeast scFv FACS
Bear in mind: pKd is minus log10 of a mol/L concentration; give just that figure.

// worked examples, pKd included
Exam item: Given the entry 18D10 scFv (scFv, mouse) scFv: QVQLKQSGIEVMKPGASVKLSCKASGYPFTAYWIEWVKQRPGHGLEWIGEFLPGGISTNFNEKFKGKATFSADTSSNSAYIQLNSLTTEDSAIYYCVLTGTGFDYWGQGTSVTVSSVDLKSGGSTSGSGKPGSGEGSSGSARENVLTQSPAIMSASPGEKVTMTCSASSSVSYMHWYQQKSGTSPKRWIYDTSKLASGVPARFSGSGSGTSYSLTISSMEAEDAATYYCQQWSSNPLTFGAGTKLELK , report its measured pKd.
Marked response: 8.22

Exam item: Do the same for 19D2 scFv (scFv, mouse) scFv: EVQLQQSGGELARPGSSVKLSCKASGYSFTGYSLTWVKQTPGQGLEWIGEIYPRSGNTYYNENFQGKATLTADESSSTAYMELRSLTSEDSAVYFCARDFYDYDGGGRGYWGQGTTLTVSSVDLKSGGSTSGSGKPGSGEGSSGSARDIVMTQTPAIMSASPGEKVTITCSASSSVSYMHWYQQKPGTSPKLWIYSTSNLASGVPARFSGSGSGTSYSLTISRMEAEDAATYYCQQRSSYPYTFGGGTKLEIK please
Marked response: 8.53

Consider the additional binder presented here.
Exam item: Reported pKd for 19D22 scFv (scFv, mouse) scFv: QIQLLQSGAELVRPGTSVKMSCKAAGYPFTSYWMGWVKQRPGHGLEWIGDIYPGGPYTNYNEKFKGKATLTADTSSSTAYMQFSSLTSEDSAIYYCALYGQVGSYAMDYWGQGTSVTVSSVDLKSGGSTSGSGKPGSGEGSSGSARQIVLTQSPAIMSASPGEKVTMTCSASSSVSYMYWYQQKPGSSPRLLIYDTSNLASGVPVRFSGSGSGTSYSLTISRMEAEDAATYYCQQWSSYPPITFGAGTKLEIK : what is it?
Marked response: 8.13
